Numbers sourced from patent US10405547B2.

# Test system: barnyardgrass (Echinochloa crus-galli)
# ASSAY_INFO: Test A postemergence, barnyardgrass
# Type: in vivo
# MEASUREMENT_PARAMETERS: 125 g ai/ha, visual injury, 0 to 100 scale (0 no effect, 100 complete control), approximately 10 days
Quick rule: Plant response rating, Barnyardgrass of at least 20 means TRUE, below that means FALSE.

Examples from the recorded data:
O=C1NCC(c2cccc(CN3CCOCC3)c2)C1C(=O)Nc1cccc(F)c1F (single isomer, unassigned) ... FALSE
CN1CC(c2cccc(OC(F)(F)C(F)OC(F)(F)F)c2)C(C(=O)Nc2ccccc2F)C1=O (stereo not shown) ... TRUE
O=C1NCC(c2cccc(Oc3ncc(F)cn3)c2)C1C(=O)Nc1cccc(F)c1F (single isomer, unassigned) ... TRUE
CN1CC(c2cccc(Oc3ccc(F)cn3)c2)C(C(=O)Nc2ccccc2F)C1=O (single isomer, unassigned) ... TRUE

Query string: Please indicate if the recorded Plant response rating, Barnyardgrass for O=C1NCC(c2cccc(COc3ccccc3)c2)C1C(=O)Nc1ccc(F)c(F)c1F (stereo not shown) meets or exceeds 20.
Result string: TRUE

Query string: Please indicate if the recorded Plant response rating, Barnyardgrass for CN1CC(c2cccc(Oc3ccc(F)cn3)c2)C(C(=O)Nc2cccc(F)c2F)C1=O (single isomer, unassigned) meets or exceeds 20.
Result string: TRUE

Query string: Please indicate if the recorded Plant response rating, Barnyardgrass for O=C1NCC(c2cccc(Oc3ccccn3)c2)C1C(=O)Nc1cccc(F)c1F (stereo not shown) meets or exceeds 20.
Result string: FALSE

Query string: Please indicate if the recorded Plant response rating, Barnyardgrass for O=C1NCC(c2cccc(Oc3ncc(F)cn3)c2)C1C(=O)Nc1ccccc1F (single isomer, unassigned) meets or exceeds 20.
Result string: TRUE

Query string: Please indicate if the recorded Plant response rating, Barnyardgrass for CC1(COc2cccc(C3CNC(=O)C3C(=O)Nc3ccccc3Cl)c2)COC1 (stereo not shown) meets or exceeds 20.
Result string: FALSE

Query string: Please indicate if the recorded Plant response rating, Barnyardgrass for O=C1NCC(c2cccc(Oc3ncc(Cl)cn3)c2)C1C(=O)Nc1ccccc1F (stereo not shown) meets or exceeds 20.
Result string: TRUE

Query string: Please indicate if the recorded Plant response rating, Barnyardgrass for O=C1NCC(c2cccc(OCc3ccco3)c2)C1C(=O)Nc1ccccc1C(F)(F)F (stereo not shown) meets or exceeds 20.
Result string: FALSE

Query string: Please indicate if the recorded Plant response rating, Barnyardgrass for O=C1NCC(c2cccc(Cn3cncn3)c2)C1C(=O)Nc1ccccc1F (stereo not shown) meets or exceeds 20.
Result string: FALSE

Query string: Please indicate if the recorded Plant response rating, Barnyardgrass for O=C1NCC(c2cccc(OC(F)(F)C(F)OC(F)(F)F)c2)C1C(=O)Nc1ccccc1F (stereo not shown) meets or exceeds 20.
Result string: TRUE

Query string: Please indicate if the recorded Plant response rating, Barnyardgrass for O=C1NCC(c2cccc(OCC3OCCO3)c2)C1C(=O)Nc1ccccc1C(F)(F)F (stereo not shown) meets or exceeds 20.
Result string: FALSE

Query string: Please indicate if the recorded Plant response rating, Barnyardgrass for O=C1NCC(c2cccc(Oc3ccccn3)c2)C1C(=O)Nc1ccc(F)c(F)c1F (stereo not shown) meets or exceeds 20.
Result string: TRUE

---

# System: barnyardgrass (Echinochloa crus-galli)
# ASSAY_INFO: Test A preemergence, barnyardgrass
# Assay type: in vivo
# MEASUREMENT_PARAMETERS: 500 g ai/ha, 0 to 100 scale (0 no effect, 100 complete control)
# Excerpt: Test A Seeds of plant species selected from barnyardgrass (Echinochloa crus-galli), kochia (Kochia scoparia), ragweed (common ragweed, Ambrosia elatior), ryegrass, Italian (Lolium multiflorum), foxtail, giant (Setaria faberii), and pigweed (Amaranthus retroflexus), were planted into a blend of loam soil and sand and treated preemergence with a directed soil spray using test chemicals formulated in a non-phytotoxic solvent mixture which included a surfactant. […]
READOUT_LABEL: Plant response rating, Barnyardgrass

// solved cases for Plant response rating, Barnyardgrass follow
O=C1NCC(c2cccc(Cn3ccc(C(F)(F)F)n3)c2)C1C(=O)Nc1cccc(F)c1F (stereo not shown) ... 40
O=C1NCC(c2cccc(Cn3cncn3)c2)C1C(=O)Nc1cccc(F)c1F (stereo not shown) ... 0
O=C1NCC(c2cccc(Cn3cccn3)c2)C1C(=O)Nc1ccc(F)c(F)c1F (stereo not shown) ... 90

Now take the following compound into account.
Query string: Give recorded Plant response rating, Barnyardgrass with barnyardgrass (Echinochloa crus-galli) for the following compound: O=C1NCC(c2cccc(Cn3ccc(C(F)(F)F)n3)c2)C1C(=O)Nc1ccccc1F (stereo not shown)
Result string: 20
